# assay.notes: The compound was tested for the inhibition of D-alanine:D-alanine ligase from streptococcus faecalis
# Design: species or system Enterococcus faecalis
measurement.name: pKi
Reminder that pKi is minus the log10 of a molar concentration.

Tell me the measured pKi of C=CC(N)P(=O)(O)O (stereo unspecified) , please.
2.30
